Each recorded value in this set is attributed to BindingDB's records for patent US20250179023.

Test target: Programmed cell death 1 ligand/protein 1 (Homo sapiens, UniProt Q9NZQ7)
Sequence (Q9NZQ7 whole entry): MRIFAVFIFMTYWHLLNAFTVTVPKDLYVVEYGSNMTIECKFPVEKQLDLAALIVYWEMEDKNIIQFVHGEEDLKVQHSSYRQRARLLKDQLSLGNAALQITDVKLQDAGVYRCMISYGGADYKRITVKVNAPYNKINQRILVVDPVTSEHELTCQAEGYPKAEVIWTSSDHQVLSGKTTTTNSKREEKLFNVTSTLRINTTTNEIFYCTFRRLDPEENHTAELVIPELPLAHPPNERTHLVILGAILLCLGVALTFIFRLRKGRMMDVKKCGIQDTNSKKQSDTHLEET
Sequence (Q15116 whole entry, further chain): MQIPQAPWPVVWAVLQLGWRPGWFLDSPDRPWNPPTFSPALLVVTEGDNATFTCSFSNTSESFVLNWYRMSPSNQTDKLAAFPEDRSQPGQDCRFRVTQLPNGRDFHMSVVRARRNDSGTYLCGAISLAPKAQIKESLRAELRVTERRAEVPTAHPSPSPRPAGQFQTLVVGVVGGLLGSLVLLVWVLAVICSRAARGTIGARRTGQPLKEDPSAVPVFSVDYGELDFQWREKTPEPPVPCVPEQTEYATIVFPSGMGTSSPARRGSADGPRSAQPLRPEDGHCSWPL
Attribute measured: IC50

[[record]]
compound_structure_string = "Cc1c(NC(=O)c2cc(C3CC3)c(CNCCC34CCC(C(=O)O)(CC3)C4)cn2)cccc1-c1cccc(NC(=O)c2cc(C3CC3)c(CNC34CCC(C(=O)O)(CC3)C4)cn2)c1C"
attribute_measured = "IC50"
result = "4.19 nM"

